Entry source: paper PMC3684613

Quick reference: inhibition of growth at 5 µM of the listed items.
# Tested on: P. falciparum 3D7
# Assay Explanation: DAPI stain fluorescent high content imaging assay, P. falciparum 3D7 (confirmatory screen, Avery)
# Measurement Conditions: Plasmodium falciparum, 3D7, read-out: percent_inh @ 5 uM
A number alone suffices; assume %.

Compound: CN(C)CCCNc1c2ccccc2nc2ccccc12
Tested Target: P. falciparum 3D7
Output Unit: %
inhibition of growth at 5 µM: 95
--
Compound: COc1ccc(Nc2nc(NN=Cc3ccc(O)cc3)nc(Nc3ccc([N+](=O)[O-])cc3)n2)cc1
Tested Target: P. falciparum 3D7
Output Unit: %
inhibition of growth at 5 µM: 98
--
Compound: COc1ccc(CN2CCN(Cc3ccccc3)CC2)c(O)c1
Tested Target: P. falciparum 3D7
Output Unit: %
inhibition of growth at 5 µM: 96

Read the next record carefully.
Lookup: # value lookup — system P. falciparum 3D7, readout inhibition of growth at 5 µM, item CSc1ccccc1C(=O)Nc1nc(-c2ccccn2)cs1
Found: 98
